endpoint_name: melting point

Please review the following examples before continuing.
[[record]]
compound = "CC(C)(C)NCc1cc(Br)cc(Br)c1O"
endpoint_name = "melting point"
result = "173 to 175 °C"

[[record]]
compound = "Cc1ccc(C=NNc2ncnc3ccccc23)cc1"
endpoint_name = "melting point"
result = "211 to 214 °C"

[[record]]
compound = "COc1ccc(-c2nc(CNC(=O)CCC(=O)O)sc2-c2ccc(OC)cc2)cc1"
endpoint_name = "melting point"
result = "110 to 116 °C"

[[record]]
compound = "COC(=O)CCCNC(=O)CCCN(C(=O)c1cc(OC)c(OC)c(OC)c1)c1c(C)cccc1C"
endpoint_name = "melting point"
result = "97 to 99 °C"

[[record]]
compound = "CCCCCCCCCc1cnc(-c2ccc(O)c(F)c2)nc1"
endpoint_name = "melting point"
result = "46 to 47.5 °C"


Request the reported melting point associated with CCCOc1ccccc1-c1nc2nc(NCCOC)ncc2c(=O)[nH]1
193 to 194 °C

And what about the compound CC(C)CC(=O)N[C@@H](Cc1ccccc1)C(=O)CSCc1ccco1 ?
94 to 95 °C

Oc1cccc(C2CCCN(CCc3c[nH]c4ccccc34)C2)c1 (configuration not stated) , same question.
130 to 135 °C

Lookup CCNc1nc(Cl)cc(NC2CC2)n1
86 to 88 °C

Try this compound next: COc1cc(NC(C)=O)c(Cl)cc1-c1nn(-c2ccc(C(F)(F)F)cc2)c(=O)o1
235 to 236 °C

Try this compound next: COC(=O)CCc1ccc(N2C(=O)CN(c3ccc(C#N)cc3)C2=O)cc1
188 to 190 °C

Consider next the compound COc1ccc2cccc(CCN3C(=O)c4ccccc4C3=O)c2c1 in the same way.
154 °C

###

endpoint_name: melting point

Example entries and their recorded answers appear below.
[[record]]
compound = "Cc1ccc2c(c1)C(c1ccccc1)CC(NC(=O)Nc1cccc(Cl)c1)C(=O)N2CC(=O)NC(C)(C)C (stereo unspecified)"
endpoint_name = "melting point"
result = "282 to 285 °C"

[[record]]
compound = "COC(=O)C1C(N2C(=O)c3ccccc3C2=O)C(=O)N1Cc1ccc(OC)cc1 (stereo unspecified)"
endpoint_name = "melting point"
result = "141 to 142 °C"

[[record]]
compound = "COc1ccc(OC)c2c(Nc3ccc(Cl)cc3F)c(C#N)cnc12"
endpoint_name = "melting point"
result = "197 to 199 °C"

[[record]]
compound = "O=[N+]([O-])c1ccc(OCCCCl)cc1"
endpoint_name = "melting point"
result = "37 to 39 °C"

[[record]]
compound = "O=C(Nc1cc2ccccc2cn1)c1nccnc1NCc1ccncc1"
endpoint_name = "melting point"
result = "139 °C"

[[record]]
compound = "CC1(C)CCC(C)(C)c2cc(C(=O)Nc3ccc(OCCN4CCOCC4)cc3)ccc21"
endpoint_name = "melting point"
result = "134 to 136 °C"

[[record]]
compound = "Cc1cc(O)ccc1-n1cc(C(=O)O)c(=O)cc1C1CCCCCCC1"
endpoint_name = "melting point"
result = "118 to 120 °C"

[[record]]
compound = "O=C(Nc1cccc([N+](=O)[O-])c1)C(=O)N1CCC(Cc2ccccc2)CC1"
endpoint_name = "melting point"
result = "138 to 140 °C"


Recorded melting point for Cc1nnc2n1-c1ccc(I)cc1C(c1ccccc1Cl)=NC2 , please?
290 to 292 °C

Next compound up: COC(=O)c1cc(-c2ccccc2)c(=O)n2c1-c1cc(Cl)ccc1CC2
139 to 141 °C

Follow-up entry: C[C@@H](NC(=O)[C@H](Cc1ccc(O)cc1)NC(=O)OC(C)(C)C)C(=O)NCC(=O)Oc1c(Cl)c(Cl)c(Cl)c(Cl)c1Cl
222 °C
